protocol summary: molar heat capacity at constant pressure
details: 403.15 K; 101.33 kPa; Liquid; Large sample (1 g) DSC
measurement type: molar heat capacity at constant pressure (J/K/mol)
Respond with the bare value in J/K/mol.

Query block: Look up molar heat capacity at constant pressure of CCCCCCCCCCBr [1-bromodecane] and report it.
Result block: 386.8

Query block: Look up molar heat capacity at constant pressure of CCCCCCCCCBr [1-bromononane] and report it.
Result block: 355.82

Query block: Look up molar heat capacity at constant pressure of CCCCCCCCCCCCCCBr [1-tetradecyl bromide] and report it.
Result block: 518.85

Query block: Look up molar heat capacity at constant pressure of CCCCCCBr [1-bromohexane] and report it.
Result block: 253.68

Query block: Look up molar heat capacity at constant pressure of CCCCCCCCCCCBr [1-bromoundecane] and report it.
Result block: 425.56

Query block: Look up molar heat capacity at constant pressure of CCCCCCCBr [1-bromoheptane] and report it.
Result block: 287.99

Query block: Look up molar heat capacity at constant pressure of CCCCCCCCCCCCBr [1-bromododecane] and report it.
Result block: 464.14

Query block: Look up molar heat capacity at constant pressure of CCCCCCCCBr [1-bromooctane] and report it.
Result block: 325.76
